- testedOn: T1, RfxCas13d (CasRx), nuclease-dead (Ruminococcus flavefaciens, R239A;H244A;R858A;H863A)
- T1 chain: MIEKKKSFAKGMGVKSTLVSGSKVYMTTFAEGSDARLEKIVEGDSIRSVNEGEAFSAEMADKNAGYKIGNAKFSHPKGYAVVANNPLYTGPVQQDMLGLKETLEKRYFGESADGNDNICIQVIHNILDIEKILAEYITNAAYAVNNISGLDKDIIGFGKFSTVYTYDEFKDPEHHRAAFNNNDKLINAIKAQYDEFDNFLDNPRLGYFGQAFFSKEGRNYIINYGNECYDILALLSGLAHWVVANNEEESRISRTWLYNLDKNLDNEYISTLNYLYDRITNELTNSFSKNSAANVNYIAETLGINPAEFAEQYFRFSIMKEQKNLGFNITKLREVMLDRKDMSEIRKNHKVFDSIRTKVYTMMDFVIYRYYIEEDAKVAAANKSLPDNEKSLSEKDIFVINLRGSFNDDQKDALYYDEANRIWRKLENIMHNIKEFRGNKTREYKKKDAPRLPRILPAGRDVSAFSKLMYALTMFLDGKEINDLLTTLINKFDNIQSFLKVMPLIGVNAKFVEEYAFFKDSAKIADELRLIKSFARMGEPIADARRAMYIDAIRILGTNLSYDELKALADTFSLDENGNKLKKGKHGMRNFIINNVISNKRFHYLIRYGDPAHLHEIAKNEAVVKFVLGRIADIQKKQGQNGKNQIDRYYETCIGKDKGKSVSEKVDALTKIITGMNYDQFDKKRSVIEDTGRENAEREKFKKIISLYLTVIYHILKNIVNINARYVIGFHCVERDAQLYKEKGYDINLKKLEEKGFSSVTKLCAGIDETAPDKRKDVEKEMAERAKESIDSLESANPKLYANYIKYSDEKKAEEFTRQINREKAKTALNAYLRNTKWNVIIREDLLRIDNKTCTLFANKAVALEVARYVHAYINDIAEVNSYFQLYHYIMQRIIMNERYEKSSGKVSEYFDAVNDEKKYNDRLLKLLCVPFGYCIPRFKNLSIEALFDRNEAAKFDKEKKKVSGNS
- assayText: BLI; crRNA (strand 1, pre-loaded); Mg2+; 40 mM Tris-HCl pH 7.5, 150 mM NaCl, 6 mM MgCl2, 1 mM DTT, 0.1% Tween-20, 0.2 mg/ml BSA; temperature not stated
- reportedConditions: tags: His6-TwinStrep-SUMO cleaved; label: 3' biotin on strand 2
pKd: −log10 of the molar value.
experimentalReadout: pKd

The cases that follow already have their pKd on record.
- target 1 U10G (60-mer) (mixed) RNA 1: AACCCCUACCAACUGGUCGGGGUUUGAAACUGAGCGGAUAACCUCUCUAUGG RNA 2: CCACAUCUACGAAUUCGUACCAUAGAGAGGUGAUCCGCUCACCGAGAUCGGAAGAGCACA: ~9.57
- target 1 A20C (60-mer) (mixed) RNA 1: AACCCCUACCAACUGGUCGGGGUUUGAAACUGAGCGGAUAACCUCUCUAUGG RNA 2: CCACAUCUACGAAUUCGUACCCUAGAGAGGUUAUCCGCUCACCGAGAUCGGAAGAGCACA: ~9.25
- target 1 G15A (60-mer) (mixed) RNA 1: AACCCCUACCAACUGGUCGGGGUUUGAAACUGAGCGGAUAACCUCUCUAUGG RNA 2: CCACAUCUACGAAUUCGUACCAUAGAAAGGUUAUCCGCUCACCGAGAUCGGAAGAGCACA: ~9.92
- target 1 G5U (60-mer) (mixed) RNA 1: AACCCCUACCAACUGGUCGGGGUUUGAAACUGAGCGGAUAACCUCUCUAUGG RNA 2: CCACAUCUACGAAUUCGUACCAUAGAGAGGUUAUCCUCUCACCGAGAUCGGAAGAGCACA: ~8.95
- target 1 C2G (60-mer) (mixed) RNA 1: AACCCCUACCAACUGGUCGGGGUUUGAAACUGAGCGGAUAACCUCUCUAUGG RNA 2: CCACAUCUACGAAUUCGUACCAUAGAGAGGUUAUCCGCUGACCGAGAUCGGAAGAGCACA: ~9.96
- target 1 C22A (60-mer) (mixed) RNA 1: AACCCCUACCAACUGGUCGGGGUUUGAAACUGAGCGGAUAACCUCUCUAUGG RNA 2: CCACAUCUACGAAUUCGUAACAUAGAGAGGUUAUCCGCUCACCGAGAUCGGAAGAGCACA: ~9.54
- target 1 MT (60-mer) (mixed) RNA 1: AACCCCUACCAACUGGUCGGGGUUUGAAACUGAGCGGAUAACCUCUCUAUGG RNA 2: CCACAUCUACGAAUUCGUACCAUAGAGAGGUUAUCCGCUCACCGAGAUCGGAAGAGCACA: ~9.98
- target 1 C7A (60-mer) (mixed) RNA 1: AACCCCUACCAACUGGUCGGGGUUUGAAACUGAGCGGAUAACCUCUCUAUGG RNA 2: CCACAUCUACGAAUUCGUACCAUAGAGAGGUUAUACGCUCACCGAGAUCGGAAGAGCACA: ~9.76

// input: 2 binders below; output: pKd for each
1. target 1 C4A (60-mer) (mixed) RNA 1: AACCCCUACCAACUGGUCGGGGUUUGAAACUGAGCGGAUAACCUCUCUAUGG RNA 2: CCACAUCUACGAAUUCGUACCAUAGAGAGGUUAUCCGAUCACCGAGAUCGGAAGAGCACA
2. target 1 A18G (60-mer) (mixed) RNA 1: AACCCCUACCAACUGGUCGGGGUUUGAAACUGAGCGGAUAACCUCUCUAUGG RNA 2: CCACAUCUACGAAUUCGUACCAUGGAGAGGUUAUCCGCUCACCGAGAUCGGAAGAGCACA

Found:
["~9.88", "~9.05"]
